I'd be grateful if you could share measured Drug uptake for these entries.
- Test system: Liver
- assayName: Biodistribution in liver of mouse EMT6 tumor bearing BALB/c mouse at 10 to 20 uCi after 60 mins
- Assay type: ADME, organism-based
- experimentalParameters: in vivo, 1 h
Give bare numbers, in % ID/g.

COc1cc2c(cc1OC)CN(CCCCNC(=O)c1cc(Br)ccc1OCC[18F])CC2; 5.69
COc1cc2c(cc1OC)CN(CCCCNC(=O)c1cc(C)ccc1OCC[18F])CC2; 4.14
COc1cc2c(cc1OC)CN(CCCCNC(=O)c1cc(I)ccc1OCC[18F])CC2; 7.31

Task item: Fill in the recorded Drug uptake for this compound, with Liver as test system: COc1cc2c(cc1OC)CN(CCCCNC(=O)c1cc(I)cc(OC)c1OCC[18F])CC2
Reply: 5.57

###

- System: Blood
- assayName: Biodistribution in blood of mouse EMT6 tumor bearing BALB/c mouse at 10 to 20 uCi after 30 mins
- Type: ADME, organism-based
- experimentalParameters: in vivo, 0.5 h
Can you tell me Drug uptake for the items I'm about to list?
Remember to follow the number with its unit.

Solved entries:
COc1cc2c(cc1OC)CN(CCCCNC(=O)c1cc(I)ccc1OCC[18F])CC2; 4.3 % ID/g
COc1cc2c(cc1OC)CN(CCCCNC(=O)c1cc(C)ccc1OCC[18F])CC2; 1.16 % ID/g

List reported Drug uptake for each of these compounds:
1. COc1cc2c(cc1OC)CN(CCCCNC(=O)c1cc(Br)ccc1OCC[18F])CC2
2. COc1cc2c(cc1OC)CN(CCCCNC(=O)c1cc(I)cc(OC)c1OCC[18F])CC2

Reply:
1: 2.81 % ID/g; 2: 1.23 % ID/g

###

- System: Muscle tissue
- assayName: Biodistribution in muscle of mouse EMT6 tumor bearing BALB/c mouse at 10 to 20 uCi after 60 mins
- Format: ADME, organism-based
- experimentalParameters: in vivo, 1 h
Provide the reported Drug uptake of each item.
Numbers only, in % ID/g.

Items follow; give Drug uptake for each.
1. COc1cc2c(cc1OC)CN(CCCCNC(=O)c1cc(Br)ccc1OCC[18F])CC2
2. COc1cc2c(cc1OC)CN(CCCCNC(=O)c1cc(I)cc(OC)c1OCC[18F])CC2
3. COc1cc2c(cc1OC)CN(CCCCNC(=O)c1cc(C)ccc1OCC[18F])CC2
4. COc1cc2c(cc1OC)CN(CCCCNC(=O)c1cc(I)ccc1OCC[18F])CC2

Reply:
[0.58, 0.4, 0.34, 0.83]

###

- Tested on: Kidney
- assayName: Biodistribution in kidney of mouse EMT6 tumor bearing BALB/c mouse at 10 to 20 uCi after 60 mins
- Assay type: ADME, organism-based
- experimentalParameters: in vivo, 1 h
Consider the following molecules; for each one, report its Drug uptake.
State the value, then name its unit.

Answered examples (3):
COc1cc2c(cc1OC)CN(CCCCNC(=O)c1cc(C)ccc1OCC[18F])CC2; 2.51 % ID/g
COc1cc2c(cc1OC)CN(CCCCNC(=O)c1cc(I)ccc1OCC[18F])CC2; 9.36 % ID/g
COc1cc2c(cc1OC)CN(CCCCNC(=O)c1cc(I)cc(OC)c1OCC[18F])CC2; 3.5 % ID/g

Now for the molecule whose Drug uptake we want.
Task item: Query (molecule): COc1cc2c(cc1OC)CN(CCCCNC(=O)c1cc(Br)ccc1OCC[18F])CC2 ; field requested: Drug uptake
Reply: 6.92 % ID/g
